# Assay System: Histone deacetylase 1 (Homo sapiens, UniProt Q13547)
# Sequence (Q13547 whole entry): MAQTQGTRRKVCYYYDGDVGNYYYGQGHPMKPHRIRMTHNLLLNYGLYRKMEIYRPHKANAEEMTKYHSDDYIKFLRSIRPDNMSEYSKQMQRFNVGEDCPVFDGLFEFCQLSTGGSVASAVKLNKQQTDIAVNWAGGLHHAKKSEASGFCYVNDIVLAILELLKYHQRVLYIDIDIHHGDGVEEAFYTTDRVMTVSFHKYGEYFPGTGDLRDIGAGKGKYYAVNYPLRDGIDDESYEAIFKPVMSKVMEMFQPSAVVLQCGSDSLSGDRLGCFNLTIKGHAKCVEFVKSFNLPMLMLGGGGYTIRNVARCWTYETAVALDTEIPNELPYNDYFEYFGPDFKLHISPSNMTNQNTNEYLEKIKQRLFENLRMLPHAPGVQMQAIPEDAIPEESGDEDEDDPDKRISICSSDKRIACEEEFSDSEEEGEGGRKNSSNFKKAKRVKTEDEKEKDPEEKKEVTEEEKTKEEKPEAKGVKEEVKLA

# Line Notation, IC50 / nM
data = [
    ("COc1ccc([C@H]2[C@H](COC(=O)c3ccc(C(=O)NO)cc3)C(=O)N2c2cc(OC)c(OC)c(OC)c2)cc1O", 155),
]

====

# Procedure Summary: Metabolic stability in human liver microsomes assessed as compound remaining incubated for 30 mins
# Format: ADME, Microsome
# Assay Context: liver microsomes, read-out: Stability

# Line Notation, remaining at 0.5 h [%]
measured = [
    ("COc1ccc([C@H]2[C@H](COC(=O)c3ccc(C(=O)NO)cc3)C(=O)N2c2cc(OC)c(OC)c(OC)c2)cc1O", 58.2),
]

====

# Procedure Summary: Metabolic stability in human liver microsomes assessed as compound remaining incubated for 20 mins
# Assay type: ADME, Microsome
# Assay Context: liver microsomes, read-out: Stability
Metric Name: remaining at 20 min (%)

# Compound, Metric Name, Unit Name, Number
records = [
    ("O=C(CCCCCCC(=O)Nc1ccccc1)NO [VORINOSTAT]", "remaining at 20 min", "%", 99),
]

====

# Procedure Summary: Metabolic stability in human liver microsomes assessed as compound remaining incubated for 10 mins
# Assay type: ADME, Microsome
# Assay Context: read-out: Stability
Metric Name: remaining at 10 min (%)

# Line Notation, Number
measured = [
    ("COc1ccc([C@H]2[C@H](COC(=O)c3ccc(C(=O)NO)cc3)C(=O)N2c2cc(OC)c(OC)c(OC)c2)cc1O", 80),
    ("O=C(CCCCCCC(=O)Nc1ccccc1)NO", 98.4),
]

====

# Tested on: BE(2)-C
# Procedure Summary: Antiproliferative activity against human BE2C cells incubated for 48 hrs by MTT assay
# Format: functional, cell-based
Each entry falls in a class defined on IC50; the bands are b0 = under 40 nM, b1 = from 40 nM up to 800 nM, b2 = 800 nM and over

# Line Notation, Assigned Class
data = [
    ("COc1ccc([C@H]2[C@@H](C)C(=O)N2c2cc(OC)c(OC)c(OC)c2)cc1/C=C/C(=O)NO", "b1"),
    ("COc1ccc([C@H]2[C@H](COC(=O)CCC(=O)NO)C(=O)N2c2cc(OC)c(OC)c(OC)c2)cc1O", "b1"),
    ("COc1ccc([C@H]2[C@H](C)C(=O)N2c2cc(OC)c(OC)c(OC)c2)cc1OCCCCC(=O)NO", "b2"),
    ("COc1ccc([C@H]2[C@H](CNC(=O)c3ccc(C(=O)NO)cc3)C(=O)N2c2cc(OC)c(OC)c(OC)c2)cc1O", "b1"),
    ("COc1ccc([C@H]2[C@H](COC(=O)c3ccc(C(=O)NO)cc3)C(=O)N2c2cc(OC)c(OC)c(OC)c2)cc1O", "b0"),
    ("C=C1C(=O)N(c2cc(OC)c(OC)c(OC)c2)[C@H]1c1ccc(OC)c(/C=C/CC(=O)NO)c1", "b1"),
    ("COc1ccc([C@H]2[C@H](C)C(=O)N2c2cc(OC)c(OC)c(OC)c2)cc1OCCCCCC(=O)NO", "b2"),
    ("COc1ccc([C@H]2[C@H](C)C(=O)N2c2cc(OC)c(OC)c(OC)c2)cc1OCCCC(=O)NO", "b2"),
    ("COc1ccc([C@H]2[C@H](CNC(=O)CCCC(=O)NO)C(=O)N2c2cc(OC)c(OC)c(OC)c2)cc1O", "b2"),
    ("COc1ccc([C@H]2[C@H](COC(=O)CCCC(=O)NO)C(=O)N2c2cc(OC)c(OC)c(OC)c2)cc1O", "b2"),
    ("C=C1C(=O)N(c2cc(OC)c(OC)c(OC)c2)[C@H]1c1ccc(OC)c(/C=C/C(=O)NO)c1", "b0"),
    ("COc1ccc([C@H]2[C@H](CNC(=O)CCC(=O)NO)C(=O)N2c2cc(OC)c(OC)c(OC)c2)cc1O", "b2"),
    ("O=C(CCCCCCC(=O)Nc1ccccc1)NO", "b2"),
    ("C=C1C(=O)N(c2cc(OC)c(OC)c(OC)c2)[C@H]1c1ccc(OC)c(O)c1", "b1"),
    ("COc1ccc([C@H]2[C@H](C)C(=O)N2c2cc(OC)c(OC)c(OC)c2)cc1OCC(=O)NO", "b0"),
]
